Test system: left saphenous nerve of rats (ectopic firing)
Assay: Inhibition of ectopic firing
Assay type: in vivo
Settings: Rattus norvegicus, iv; rats with cut left saphenous nerve, urethane anesthesia, compound via catheter in right cervical vein, number of firings in 10 seconds; read-out: Inhibition of ectopic firing (ID50)
Procedure: <Inhibition of Ectopic Firing> (1) The inhibitory effect on ectopic firing was evaluated by the following method, with reference to Burchiel, K J., Exp. Neurol., 102, 249-253 (1988). […] (3) The detached nerve was placed on a platinum hook electrode and wetted with liquid paraffin to avoid drying of the nerve. The electrode was connected to a microelectrode amplifier, and the change in potential was recorded from an oscilloscope through an A/D converter onto a computer. […]
// reported ED50 per item

Molecule	Study system	ED50
Cc1ccccc1OCC1(C#N)CCN(Cc2ccc[nH]c2=O)CC1	left saphenous nerve of rats (ectopic firing)	< 0.5 mg/kg
O=c1[nH]cccc1CN1CCC(CCc2ccccc2)(COc2ccccc2F)CC1	left saphenous nerve of rats (ectopic firing)	< 0.5 mg/kg
CC1(C(=O)Cc2ccccc2C(F)(F)F)CCN(Cc2ncc[nH]c2=O)CC1	left saphenous nerve of rats (ectopic firing)	< 0.5 mg/kg
O=c1[nH]ccnc1CN1CCC(COc2cc(F)ccc2F)CC1	left saphenous nerve of rats (ectopic firing)	0.5 to 1 mg/kg
O=c1[nH]ccnc1CN1CCC(C#Cc2ccccc2F)CC1	left saphenous nerve of rats (ectopic firing)	< 0.5 mg/kg
O=c1[nH]ccnc1CN1CCC(c2nc(-c3cccc(F)c3)no2)CC1	left saphenous nerve of rats (ectopic firing)	0.5 to 1 mg/kg
O=c1nccc(CCN2CCC(COc3ccccc3F)CC2)[nH]1	left saphenous nerve of rats (ectopic firing)	< 0.5 mg/kg
Cc1ccccc1OCC1(CCc2ccccc2F)CCN(Cc2ncc[nH]c2=O)CC1	left saphenous nerve of rats (ectopic firing)	0.5 to 1 mg/kg
Cc1ccccc1OCC1CCN(Cc2ncc[nH]c2=O)C1.O=C(O)C(=O)O (stereo not shown)	left saphenous nerve of rats (ectopic firing)	0.5 to 1 mg/kg
Cc1ccccc1C#CC1(O)CCN(Cc2ccc[nH]c2=O)CC1	left saphenous nerve of rats (ectopic firing)	< 0.5 mg/kg
O=C(O)C(=O)O.O=c1[nH]ccnc1CN1CCC(COc2ccccc2F)C1 (stereo not shown)	left saphenous nerve of rats (ectopic firing)	0.5 to 1 mg/kg
O=c1cncc(CCN2CCC(COc3ccccc3Cl)CC2)[nH]1	left saphenous nerve of rats (ectopic firing)	< 0.5 mg/kg
CC1(C(=O)Cc2ccccc2F)CCN(Cc2ncc[nH]c2=O)CC1	left saphenous nerve of rats (ectopic firing)	< 0.5 mg/kg
COc1ccccc1CCC1CCN(Cc2ncc[nH]c2=O)C1.O=C(O)C(=O)O (stereo not shown)	left saphenous nerve of rats (ectopic firing)	< 0.5 mg/kg
C[C@H]1C[C@@H](C(=O)Cc2ccccc2F)CCN1Cc1ncc[nH]c1=O (relative stereo)	left saphenous nerve of rats (ectopic firing)	< 0.5 mg/kg
O=c1cncc(CCN2CCC(COc3cc(F)ccc3F)CC2)[nH]1	left saphenous nerve of rats (ectopic firing)	0.5 to 1 mg/kg
O=C(Cc1ccccc1C(F)(F)F)C1CCN(Cc2ncc[nH]c2=O)CC1	left saphenous nerve of rats (ectopic firing)	< 0.5 mg/kg
O=c1[nH]ccnc1CN1CCC(COc2ccccc2)CC1	left saphenous nerve of rats (ectopic firing)	< 0.5 mg/kg
O=c1cncc(CCN2CCC(/C=C/c3ccccc3F)CC2)[nH]1	left saphenous nerve of rats (ectopic firing)	0.5 to 1 mg/kg

Every entry's value here was drawn from patent US20050245527A1.
